# TARGET OR SYSTEM: furin, P09958;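 note: purified furin at 1:10 enzyme:substrate in 50 mM HEPES pH 7.5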
# Sequence (P09958 whole entry): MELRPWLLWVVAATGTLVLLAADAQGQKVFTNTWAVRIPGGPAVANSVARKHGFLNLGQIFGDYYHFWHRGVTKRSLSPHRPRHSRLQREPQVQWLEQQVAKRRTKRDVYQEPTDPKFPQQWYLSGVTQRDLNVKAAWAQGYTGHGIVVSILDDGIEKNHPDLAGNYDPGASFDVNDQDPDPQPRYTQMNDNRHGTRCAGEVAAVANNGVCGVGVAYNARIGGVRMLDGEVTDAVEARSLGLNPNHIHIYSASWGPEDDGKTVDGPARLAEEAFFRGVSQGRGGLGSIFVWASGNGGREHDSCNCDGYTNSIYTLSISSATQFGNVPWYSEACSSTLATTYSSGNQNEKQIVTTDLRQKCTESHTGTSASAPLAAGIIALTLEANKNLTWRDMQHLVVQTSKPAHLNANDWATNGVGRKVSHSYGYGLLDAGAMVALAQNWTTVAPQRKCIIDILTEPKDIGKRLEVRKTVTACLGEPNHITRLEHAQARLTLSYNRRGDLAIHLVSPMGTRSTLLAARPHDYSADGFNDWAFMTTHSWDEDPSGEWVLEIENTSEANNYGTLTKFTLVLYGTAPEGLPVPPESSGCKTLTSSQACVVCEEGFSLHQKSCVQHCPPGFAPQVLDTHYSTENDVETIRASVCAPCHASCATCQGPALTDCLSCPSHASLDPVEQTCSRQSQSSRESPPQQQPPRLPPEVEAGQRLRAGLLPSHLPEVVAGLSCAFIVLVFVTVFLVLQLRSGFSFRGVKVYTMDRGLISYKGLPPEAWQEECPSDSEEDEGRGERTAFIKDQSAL
# METHOD NOTES: furin cleavage Z-score vs untreated control; higher = more cleavage, active = 3.5 or more, inactive = 1 or less, 8 variable residues between constant flanks
# TEST PARAMETERS: 30 min
The other results are listed elsewhere or left out. No count for the full screen is at hand.
PARAMETER MEASURED: furin cleavage Z-score

record_sequence="CALKKRIKSVAGNASASA [FS-2123]" measured_value="0.647 (inactive)"
record_sequence="CAKGGRRSRNAGNASASA [FS-340]" measured_value="6.68 (active)"
record_sequence="CASPNRSRRHAGNASASA [FS-300]" measured_value="7.23 (active)"
record_sequence="CALSKRLGRSAGNASASA [FS-1644]" measured_value="7.46 (active)"
record_sequence="CALRKRDVSVAGNASASA [FS-1676]" measured_value="7 (active)"
record_sequence="CARKKKEEEMAGNASASA [FS-2264]" measured_value="-0.39 (inactive)"
record_sequence="CADHLEFWEGAGNASASA [HC937]" measured_value="0.811 (inactive)"
record_sequence="CATTPCSGTWAGNASASA [HC1918]" measured_value="0.941 (inactive)"
record_sequence="CAKGGRKPARAGNASASA [HC1446]" measured_value="-1.51 (inactive)"
record_sequence="CAVGIYLLPNAGNASASA [HC1662]" measured_value="-0.482 (inactive)"
record_sequence="CAETAGARLVAGNASASA [HC829]" measured_value="-1.04 (inactive)"
record_sequence="CAYSGGDIYHAGNASASA [HC1648]" measured_value="-0.39 (inactive)"
record_sequence="CARRKRSIEEAGNASASA [FS-2230]" measured_value="9.55 (active)"
record_sequence="CASPRGSRPSAGNASASA [HC210]" measured_value="-0.107 (inactive)"
record_sequence="CADPRRRSRNAGNASASA [HC216]" measured_value="5.55 (active)"

Source of measurements: the supplement of paper PMC3545927
